target: AP2-associated protein kinase 1 (Homo sapiens, UniProt Q2M2I8); assay: Inhibition of recombinant GST-Xa-tagged human AAK1 (30 to 330 residues) using 5-FAM-labelled Alla-KEEQSQITSQVTGQIGWR-NH2 peptide as substrate incubated for 3 hrs in presence of ATP by electrophoretic analysis
Sequence (Q2M2I8 whole entry, the tested form may be a part): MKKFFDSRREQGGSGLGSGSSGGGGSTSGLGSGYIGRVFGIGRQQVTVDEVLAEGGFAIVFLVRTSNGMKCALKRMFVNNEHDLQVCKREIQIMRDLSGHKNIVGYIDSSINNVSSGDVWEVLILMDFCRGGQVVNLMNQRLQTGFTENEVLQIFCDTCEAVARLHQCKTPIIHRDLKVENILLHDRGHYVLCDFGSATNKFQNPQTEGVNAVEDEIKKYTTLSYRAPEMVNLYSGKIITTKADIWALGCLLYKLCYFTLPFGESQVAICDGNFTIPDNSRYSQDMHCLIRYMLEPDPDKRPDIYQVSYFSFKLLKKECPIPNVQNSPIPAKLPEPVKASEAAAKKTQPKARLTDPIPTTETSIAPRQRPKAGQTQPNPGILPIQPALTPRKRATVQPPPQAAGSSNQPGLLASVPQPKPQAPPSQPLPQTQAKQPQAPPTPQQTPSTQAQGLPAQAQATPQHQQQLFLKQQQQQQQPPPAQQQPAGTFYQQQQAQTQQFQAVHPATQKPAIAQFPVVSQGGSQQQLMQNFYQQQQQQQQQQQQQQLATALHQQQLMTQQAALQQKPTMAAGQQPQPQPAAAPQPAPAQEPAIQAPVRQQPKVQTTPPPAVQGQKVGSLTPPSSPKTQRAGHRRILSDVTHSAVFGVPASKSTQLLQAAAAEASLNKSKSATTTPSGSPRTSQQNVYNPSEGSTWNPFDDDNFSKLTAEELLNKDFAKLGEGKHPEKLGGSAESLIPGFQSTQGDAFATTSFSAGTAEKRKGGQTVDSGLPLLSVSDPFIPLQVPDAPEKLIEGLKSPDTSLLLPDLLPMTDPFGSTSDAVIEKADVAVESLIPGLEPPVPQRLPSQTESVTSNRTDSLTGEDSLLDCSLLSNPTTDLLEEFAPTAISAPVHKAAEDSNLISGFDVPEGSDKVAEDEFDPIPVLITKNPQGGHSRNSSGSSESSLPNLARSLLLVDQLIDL
Listed next: entries and their corresponding IC50.
metric name: IC50 (µM)

CC[C@@H](N)C(=O)Nc1ccc(-c2cnco2)c(OC)c1; 0.12
COc1cc(NC(=O)CC2CCCC2)ccc1-c1cnco1; 0.08
COc1cc(NC(=O)[C@H](N)CC(C)(C)C)ccc1-c1cnco1; 0.085

* * *

Listed next: entries and their corresponding remaining at 10 min, 0.5 µM.
assay: Metabolic stability in mouse liver microsomes assessed as parent compound remaining at 0.5 uM incubated for 10 mins in presence of NADPH by LC-MS/MS analysis; format: ADME, Microsome; conditions: read-out: Stability
metric name: remaining at 10 min, 0.5 µM (%)

CCC[C@@H](N)C(=O)Nc1ccc(-c2cnco2)c(OC)c1; 49
COc1cc(NC(=O)C[C@@H](N)C(C)C)ccc1-c1cnco1; 7
COc1cc(NC(=O)[C@H](N)CC(C)C)ccc1-c1cncs1; 55
CN[C@H](CC(C)C)C(=O)Nc1ccc(-c2cnco2)c(OC)c1; 14
CC[C@@H](N)C(=O)Nc1ccc(-c2cnco2)c(OC)c1; 46
COc1cc(NC(=O)[C@H](N)C(C)C)ccc1-c1cnco1; 40
COc1cc(NC(=O)[C@@H](C)N)ccc1-c1cnco1; 97
CNc1cc(-c2ccc(NC(=O)[C@H](N)CC(C)C)cc2OC)ccn1; 24
COc1cc(NC(=O)[C@H](N)CC(C)C)ccc1-n1cncn1; 87
COc1cc(NC(=O)[C@H](N)CC2CCC2)ccc1-c1cnco1; 53
COc1cc(NC(=O)C(CN)CC(C)C)ccc1-c1cnco1 (stereo not given); 78
CC(C)C[C@@H](N)C(=O)Nc1ccc(-c2cnco2)cc1; 45
COc1cc(NC(=O)[C@H](N)CC(C)C)ccc1-c1ccnnc1; 70
Cc1cc(NC(=O)[C@H](N)CC(C)C)ccc1-c1cnco1; 43
CC(C)C[C@@H](N)C(=O)Nc1ccc(-c2cnco2)c(C#N)c1; 57

* * *

molecular target: AP2-associated protein kinase 1 (Homo sapiens); assay: Inhibition of recombinant GST-Xa-tagged human AAK1 (30 to 330 residues) using 5-FAM-labelled Alla-KEEQSQITSQVTGQIGWR-NH2 peptide as substrate incubated for 3 hrs in presence of ATP by electrophoretic analysis
pIC50: −log10 of the molar value.
metric name: pIC50

COc1cc(NC(=O)[C@H](N)Cc2ccccc2)ccc1-c1cnco1; 6.20
COc1cc(NC(=O)C[C@@H](N)C(C)C)ccc1-c1cnco1; 6.90
COc1cc(NC(=O)CCC(C)C)ccc1-c1cnco1; 7.10
COc1cc(NC(=O)[C@H](N)CC(C)C)ccc1-c1ccnc(N)c1; 6.82
COc1cc(NC(=O)[C@H](N)CC(C)C)ccc1-c1ccnc(Cl)c1; 6.62

* * *

Listed next: entries and their corresponding remaining at 10 min, 0.5 µM.
test: Metabolic stability in mouse liver microsomes assessed as parent compound remaining at 0.5 uM incubated for 10 mins in presence of NADPH by LC-MS/MS analysis; type: ADME, Microsome; conditions: read-out: Stability
metric name: remaining at 10 min, 0.5 µM (%)

CCCC[C@H](N)C(=O)Nc1ccc(-c2cnco2)c(OC)c1; 43
COc1cc(NC(=O)[C@H](N)CC(C)C)ccc1-c1cn[nH]n1; 44
COc1cc(NC(=O)CCC(C)C)ccc1-c1cnco1; 33
